Test: Pharmacokinetics in rats (LC-MS/MS, WinNonlin)
Conditions: Sprague-Dawley, rat, plasma, iv, 5 mg/kg, AUC(0-∞), rats; allopurinol intravenous 5 mg/kg; individual rats
Readout label: AUC(0-inf) (ng·h/mL)
Give just the number in ng·h/mL; leave the unit off.

Query: AUC(0-inf); subject: Oc1ncnc2[nH]ncc12 [allopurinol]
170

---

Assay: Pharmacokinetics in rats (LC-MS/MS, WinNonlin)
Details: Sprague-Dawley, rat, plasma, po, 50 mg/kg, AUC(0-t), rats; allopurinol gavage 50 mg/kg; Average
Readout label: AUC(0-t) (ng·h/mL)
Give just the number in ng·h/mL; leave the unit off.

Query: AUC(0-t); subject: Oc1ncnc2[nH]ncc12
6470

---

Test: Pharmacokinetics in rats (LC-MS/MS, WinNonlin)
Settings: Sprague-Dawley, rat, plasma, oral, F (absolute bioavailability), rats; allopurinol gavage 50 mg/kg vs intravenous 5 mg/kg
Readout label: bioavailability

Query: bioavailability; subject: Oc1ncnc2[nH]ncc12 [allopurinol]
~314%

---

Experiment: Pharmacokinetics in rats (LC-MS/MS, WinNonlin)
Settings: Sprague-Dawley, rat, plasma, iv, 5 mg/kg, AUC(0-∞), rats; allopurinol intravenous 5 mg/kg; Average
Readout label: AUC(0-inf) (ng·h/mL)
Give just the number in ng·h/mL; leave the unit off.

Query: AUC(0-inf); subject: Oc1ncnc2[nH]ncc12 [allopurinol]
209

---

Assay: Pharmacokinetics in rats (LC-MS/MS, WinNonlin)
Conditions: Sprague-Dawley, rat, plasma, iv, 5 mg/kg, AUC(0-t), rats; allopurinol intravenous 5 mg/kg; Average
Readout label: AUC(0-t) (ng·h/mL)
Give just the number in ng·h/mL; leave the unit off.

Query: AUC(0-t); subject: Oc1ncnc2[nH]ncc12
179

---

Test: Pharmacokinetics in rats (LC-MS/MS, WinNonlin)
Conditions: Sprague-Dawley, rat, plasma, po, 50 mg/kg, AUC(0-∞), rats; allopurinol gavage 50 mg/kg; individual rats
Readout label: AUC(0-inf) (ng·h/mL)
Give just the number in ng·h/mL; leave the unit off.

Query: AUC(0-inf); subject: Oc1ncnc2[nH]ncc12
6430

---

Assay: Pharmacokinetics in rats (LC-MS/MS, WinNonlin)
Conditions: Sprague-Dawley, rat, plasma, iv, 5 mg/kg, MRT(0-∞), rats; allopurinol intravenous 5 mg/kg; individual rats
Readout label: MRT inf (min)
Give just the number in min; leave the unit off.

Query: MRT inf; subject: Oc1ncnc2[nH]ncc12
43.8

---

Assay: Pharmacokinetics in rats (LC-MS/MS, WinNonlin)
Conditions: Sprague-Dawley, rat, plasma, po, 50 mg/kg, MRT(0-∞), rats; allopurinol gavage 50 mg/kg; Average
Readout label: MRT inf (h)
Give just the number in h; leave the unit off.

Query: MRT inf; subject: Oc1ncnc2[nH]ncc12
2.5

---

Assay: Pharmacokinetics in rats (LC-MS/MS, WinNonlin)
Conditions: Sprague-Dawley, rat, plasma, po, 50 mg/kg, T max, rats; allopurinol gavage 50 mg/kg; Average
Readout label: Tmax

Query: Tmax; subject: Oc1ncnc2[nH]ncc12
1 to 2 h

---

Assay: Pharmacokinetics in rats (LC-MS/MS, WinNonlin)
Conditions: Sprague-Dawley, rat, plasma, po, 50 mg/kg, AUC(0-∞), rats; allopurinol gavage 50 mg/kg; Average
Readout label: AUC(0-inf)

Query: AUC(0-inf); subject: Oc1ncnc2[nH]ncc12 [allopurinol]
~6580 ng·h/mL

---

Experiment: Pharmacokinetics in rats (LC-MS/MS, WinNonlin)
Details: Sprague-Dawley, rat, plasma, po, 50 mg/kg, C max, rats; allopurinol gavage 50 mg/kg; Average
Readout label: Cmax

Query: Cmax; subject: Oc1ncnc2[nH]ncc12 [allopurinol]
~1.35 µg/mL

---

Test: Pharmacokinetics in rats (LC-MS/MS, WinNonlin)
Conditions: Sprague-Dawley, rat, plasma, po, 50 mg/kg, C max, rats; allopurinol gavage 50 mg/kg; individual rats
Readout label: Cmax (ng/mL)
Give just the number in ng/mL; leave the unit off.

Query: Cmax; subject: Oc1ncnc2[nH]ncc12 [allopurinol]
1310

---

Experiment: Pharmacokinetics in rats (LC-MS/MS, WinNonlin)
Details: Sprague-Dawley, rat, plasma, po, 50 mg/kg, MRT(0-∞), rats; allopurinol gavage 50 mg/kg; individual rats
Readout label: MRT inf (h)
Give just the number in h; leave the unit off.

Query: MRT inf; subject: Oc1ncnc2[nH]ncc12
2.06

---

Test: Pharmacokinetics in rats (LC-MS/MS, WinNonlin)
Details: Sprague-Dawley, rat, plasma, iv, 5 mg/kg, C 0, rats; allopurinol intravenous 5 mg/kg; Average
Readout label: C0

Query: C0; subject: Oc1ncnc2[nH]ncc12 [allopurinol]
~225 ng/mL
